# reported Population Normal (%); entries follow
Test system: HEK-293T
TEST_PROTOCOL: Multiplex assay against HEK293T
Type: toxicity, cell-based
REPORTED_CONDITIONS: human, 24 h, 1 µM, compound concentration 1 uM, replicate 2

>  <COMPOUND>
CC[C@@]1(O)C(=O)OCc2c1cc1n(c2=O)Cc2cc3ccccc3nc2-1 [CAMPTOTHECIN]

>  <SYSTEM_UNDER_TEST>
HEK-293T

>  <Population Normal (%)>
94

$$$$
>  <COMPOUND>
NC(=O)c1ccc2nc(-c3ccc(C4(N)CCC4)cc3)c(-c3ccccc3)n2n1 [BAY-1125976]

>  <SYSTEM_UNDER_TEST>
HEK-293T

>  <Population Normal (%)>
95

$$$$
>  <COMPOUND>
CCCc1cc(C)[nH]c(=O)c1CNC(=O)c1cc(-c2ccc(N3CCN(C(C)C)CC3)nc2)cc2c1cnn2C(C)C

>  <SYSTEM_UNDER_TEST>
HEK-293T

>  <Population Normal (%)>
96

$$$$
>  <COMPOUND>
CN1C(=O)[C@@H](NC(=O)c2cc3ccccc3[nH]2)N=C(c2ccccc2)c2ccccc21 [DEVAZEPIDE]

>  <SYSTEM_UNDER_TEST>
HEK-293T

>  <Population Normal (%)>
97

$$$$
>  <COMPOUND>
N#Cc1cccc(C(=O)Nc2cc(-c3ccccc3)nn2-c2ccccc2)c1

>  <SYSTEM_UNDER_TEST>
HEK-293T

>  <Population Normal (%)>
95

$$$$
>  <COMPOUND>
CC[C@@H]1C(=O)N(C)c2cnc(Nc3ccc(C(=O)NC4CCN(C)CC4)cc3OC)nc2N1C1CCCC1 [BI-2536]

>  <SYSTEM_UNDER_TEST>
HEK-293T

>  <Population Normal (%)>
95

$$$$
>  <COMPOUND>
CCOc1ccn(-c2ccc(F)cc2)c(=O)c1C(=O)Nc1ccc(Oc2ccnc(N)c2Cl)c(F)c1 [BMS-777607]

>  <SYSTEM_UNDER_TEST>
HEK-293T

>  <Population Normal (%)>
93

$$$$
>  <COMPOUND>
C[C@@H](Oc1cc(-n2cnc3ccc(CN4CCN(C)CC4)cc32)sc1C(N)=O)c1ccccc1C(F)(F)F [GSK-461364]

>  <SYSTEM_UNDER_TEST>
HEK-293T

>  <Population Normal (%)>
96

$$$$
>  <COMPOUND>
CC(/C=C1\SC(=S)N(CCCC(=O)Nc2ccc(C(=O)O)c(O)c2)C1=O)=C\c1ccccc1

>  <SYSTEM_UNDER_TEST>
HEK-293T

>  <Population Normal (%)>
98

$$$$
>  <COMPOUND>
CCCCN(CC)c1nc(C)nc2c1c(C)cn2-c1c(C)cc(C)cc1C.Cl

>  <SYSTEM_UNDER_TEST>
HEK-293T

>  <Population Normal (%)>
98

$$$$
>  <COMPOUND>
CC[C@H](Nc1ncnc2[nH]cnc12)c1nc2cccc(F)c2c(=O)n1-c1ccccc1 [IDELALISIB]

>  <SYSTEM_UNDER_TEST>
HEK-293T

>  <Population Normal (%)>
96

$$$$
>  <COMPOUND>
Cc1ccc(S(=O)(=O)NC2c3ccccc3Oc3ccccc32)cc1

>  <SYSTEM_UNDER_TEST>
HEK-293T

>  <Population Normal (%)>
98

$$$$
>  <COMPOUND>
CCCCCNC(=N)N/N=C/c1c[nH]c2ccc(OC)cc12.O=C(O)/C=C\C(=O)O [TEGASEROD MALEATE]

>  <SYSTEM_UNDER_TEST>
HEK-293T

>  <Population Normal (%)>
96

$$$$
>  <COMPOUND>
N#CCNC(=O)c1ccc(-c2ccnc(Nc3ccc(N4CCOCC4)cc3)n2)cc1 [MOMELOTINIB]

>  <SYSTEM_UNDER_TEST>
HEK-293T

>  <Population Normal (%)>
98

$$$$
>  <COMPOUND>
Cl.Cn1c2c(c3ccc(Cl)c(Cl)c31)C(C#N)C1(CCNCC1)NC2=O (stereo not drawn)

>  <SYSTEM_UNDER_TEST>
HEK-293T

>  <Population Normal (%)>
96

$$$$
>  <COMPOUND>
CC(Cc1ccc(O)c(O)c1)C(C)Cc1ccc(O)c(O)c1 (stereo not drawn) [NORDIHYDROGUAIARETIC ACID]

>  <SYSTEM_UNDER_TEST>
HEK-293T

>  <Population Normal (%)>
96

$$$$
>  <COMPOUND>
CC(C)c1cc(Nc2nc(N3CCC[C@H](N)C3)ncc2C(N)=O)cc(C(C)C)n1

>  <SYSTEM_UNDER_TEST>
HEK-293T

>  <Population Normal (%)>
94

$$$$
>  <COMPOUND>
Cl.NC[C@@H]1O[C@H](C23CC4CC(CC(C4)C2)C3)Cc2c1ccc(O)c2O

>  <SYSTEM_UNDER_TEST>
HEK-293T

>  <Population Normal (%)>
98

$$$$
